Each recorded value in this set is attributed to ChEMBL document CHEMBL5532655.

# Procedure text: Cmax in Sprague-Dawley rat at 10 mg/kg,po administration measured upto 24 hrs by LC-MS/MS analysis
# Assay type: ADME, organism-based
# Run parameters: in vivo
Recorded endpoint: Cmax (ng/mL)
Answer format: numeric, ng/mL implied, no suffix.

What does the record list as Cmax for "COc1cc2c(cc1-c1c(C)noc1C)ncc1nc(C)n([C@H](C)c3ccccc3)c12" ? 1780

----------
# Procedure text: Half life in Sprague-Dawley rat at 1 mg/kg,iv administration measured upto 24 hrs by LC-MS/MS analysis
# Format: ADME, organism-based
# Run parameters: in vivo
Recorded endpoint: half-life (min)
Answer format: numeric, min implied, no suffix.

What does the record list as half-life for "COc1cc2c(cc1-c1c(C)noc1C)ncc1nc(C)n([C@H](C)c3ccccc3)c12" ? 42

----------
# Procedure text: MRTinfinity in Sprague-Dawley rat at 1 mg/kg,iv administration measured upto 24 hrs by LC-MS/MS analysis
# Assay type: ADME, organism-based
# Run parameters: in vivo
Recorded endpoint: MRT inf
Output should be the measured figure followed by the unit it is expressed in.

What does the record list as MRT inf for "COc1cc2c(cc1-c1c(C)noc1C)ncc1nc(C)n([C@H](C)c3ccccc3)c12" ? 50.4 min

----------
# Procedure text: MRTinfinity in Sprague-Dawley rat at 10 mg/kg,po administration measured upto 24 hrs by LC-MS/MS analysis
# Type: ADME, organism-based
# Run parameters: in vivo
Recorded endpoint: MRT inf (h)
Answer format: numeric, h implied, no suffix.

What does the record list as MRT inf for "COc1cc2c(cc1-c1c(C)noc1C)ncc1nc(C)n([C@H](C)c3ccccc3)c12" ? 5.86

----------
Recorded measurements of pIC50, one per entry
# System: MOLM-13
# Procedure text: cells
# Run parameters: Homo sapiens, MOLM-13, 48 h
# Description: Antiproliferative activity against human MOLM-13 cells assessed as inhibition of cell growth incubated for 48 hrs by MTT assay
In textbook form, pIC50 equals minus log to base ten of the concentration in mol/L.

{"Smiles representation": "COc1cc2c(cc1-c1c(C)noc1C)ncc1nc(C)n([C@H](C)c3ccccc3)c12", "Target entity": "MOLM-13", "pIC50": 6.37}
{"Smiles representation": "COc1cc2c(cc1-c1c(C)noc1C)ncc1nc(C)n([C@@H](C)c3ccccc3)c12", "Target entity": "MOLM-13", "pIC50": 4.90}
{"Smiles representation": "COc1cc2c(cc1-c1c(C)noc1C)ncc1nc(C)n(-c3ccc(CC#N)cc3)c12", "Target entity": "MOLM-13", "pIC50": 4.99}
{"Smiles representation": "COc1cc2c(cc1-c1ccc(C(C)=O)cc1)ncc1nc(C)n([C@@H](C)c3ccccc3)c12", "Target entity": "MOLM-13", "pIC50": 5.33}
{"Smiles representation": "COc1ccc(-n2c(C)nc3cnc4cc(-c5ccc(O)cc5)c(OC)cc4c32)cc1", "Target entity": "MOLM-13", "pIC50": 4.74}
{"Smiles representation": "COc1cc2c(cc1-c1c(C)n[nH]c1C)ncc1nc(C)n([C@H](C)c3ccccc3)c12", "Target entity": "MOLM-13", "pIC50": 6.18}
{"Smiles representation": "COc1cc2c(cc1-c1ccc(C(F)(F)F)cc1)ncc1nc(C)n([C@@H](C)c3ccccc3)c12", "Target entity": "MOLM-13", "pIC50": 6.04}
{"Smiles representation": "COc1cc2c(cc1-c1ccc(C#N)cc1)ncc1nc(C)n([C@@H](C)c3ccccc3)c12", "Target entity": "MOLM-13", "pIC50": 5.00}

The record that follows has no pIC50 shown yet.
What does the record list as pIC50 for "COc1cc2c(cc1-c1ccc(N)nc1)ncc1nc(C)n([C@@H](C)c3ccccc3)c12" ? 5.32

----------
# Procedure text: Apparent volume of distribution during terminal phase in Sprague-Dawley rat at 10 mg/kg,po administration measured upto 24 hrs by LC-MS/MS analysis
# Type: ADME, organism-based
# Run parameters: in vivo, read-out: Vz/F
Recorded endpoint: Vd/F (L/kg)
Answer format: numeric, L/kg implied, no suffix.

What does the record list as Vd/F for "COc1cc2c(cc1-c1c(C)noc1C)ncc1nc(C)n([C@H](C)c3ccccc3)c12" ? 2.39

----------
# Test system: MOLM-13
# Procedure text: cells
# Run parameters: Homo sapiens, MOLM-13, 48 h
Recorded endpoint: pIC50
In textbook form, pIC50 equals minus log to base ten of the concentration in mol/L.

Record excerpt, results attached:
{"Compound": "COc1ccc(-n2c(C)nc3cnc4cc(-c5c(C)noc5C)c(OC)cc4c32)cc1", "Reported value": 4.94}
{"Compound": "COc1ccc(-c2cc3ncc4nc(C)n([C@@H](C)c5ccccc5)c4c3cc2OC)cc1", "Reported value": 5.39}
{"Compound": "COc1cc2c(cc1-c1cnc3[nH]ccc3c1)ncc1nc(C)n(C(C)c3ccccc3)c12 (centres undefined)", "Reported value": 5.16}
{"Compound": "COc1cc2c(cc1-c1c(C)n[nH]c1C)ncc1nc(C)n([C@@H](C)c3ccccc3)c12", "Reported value": 4.88}
{"Compound": "COc1ccc(-c2cc3ncc4nc(C)n(-c5ccc(OC)cc5)c4c3cc2OC)cc1", "Reported value": 4.81}

What does the record list as pIC50 for "COc1ccc(-n2c(C)nc3cnc4cc(-c5ccc(N)nc5)c(OC)cc4c32)cc1" ? 4.95

What does the record list as pIC50 for "COc1cc2c(cc1-c1ccc3nc[nH]c3c1)ncc1nc(C)n([C@@H](C)c3ccccc3)c12" ? 4.72

----------
# Procedure text: Volume of distribution at steady state in Sprague-Dawley rat at 1 mg/kg,iv administration measured upto 24 hrs by LC-MS/MS analysis
# Type: ADME, organism-based
# Run parameters: in vivo, read-out: Vdss
Recorded endpoint: Vd (L/kg)
Answer format: numeric, L/kg implied, no suffix.

What does the record list as Vd for "COc1cc2c(cc1-c1c(C)noc1C)ncc1nc(C)n([C@H](C)c3ccccc3)c12" ? 0.6

----------
# Procedure text: Clearance in Sprague-Dawley rat at 1 mg/kg,iv administration measured upto 24 hrs by LC-MS/MS analysis
# Assay type: ADME, organism-based
# Run parameters: in vivo
Recorded endpoint: clearance (mL/min/kg)
Answer format: numeric, mL/min/kg implied, no suffix.

What does the record list as clearance for "COc1cc2c(cc1-c1c(C)noc1C)ncc1nc(C)n([C@H](C)c3ccccc3)c12" ? 12.1

----------
# Procedure text: AUC (0-infinity) in Sprague-Dawley rat at 1 mg/kg,iv administration measured upto 24 hrs by LC-MS/MS analysis
# Type: ADME, organism-based
# Run parameters: in vivo
Recorded endpoint: AUC(0-inf) (ng·h/mL)
Answer format: numeric, ng·h/mL implied, no suffix.

What does the record list as AUC(0-inf) for "COc1cc2c(cc1-c1c(C)noc1C)ncc1nc(C)n([C@H](C)c3ccccc3)c12" ? 1400

----------
# Procedure text: AUC (0-t) in Sprague-Dawley rat at 10 mg/kg,po administration measured upto 24 hrs by LC-MS/MS analysis
# Type: ADME, organism-based
# Run parameters: in vivo
Recorded endpoint: AUC(0-t) at 24 h (µg·h/mL)
Answer format: numeric, µg·h/mL implied, no suffix.

What does the record list as AUC(0-t) at 24 h for "COc1cc2c(cc1-c1c(C)noc1C)ncc1nc(C)n([C@H](C)c3ccccc3)c12" ? 16

----------
# Procedure text: AUC (0-t) in Sprague-Dawley rat at 1 mg/kg,iv administration measured upto 24 hrs by LC-MS/MS analysis
# Type: ADME, organism-based
# Run parameters: in vivo
Recorded endpoint: AUC(0-t) at 24 h (ng·h/mL)
Answer format: numeric, ng·h/mL implied, no suffix.

What does the record list as AUC(0-t) at 24 h for "COc1cc2c(cc1-c1c(C)noc1C)ncc1nc(C)n([C@H](C)c3ccccc3)c12" ? 1380

----------
# Procedure text: Oral bioavailability in Sprague-Dawley rat at 10 mg/kg measured upto 24 hrs by LC-MS/MS analysis
# Type: ADME, organism-based
# Run parameters: in vivo
Recorded endpoint: bioavailability (%)
Answer format: numeric, % implied, no suffix.

What does the record list as bioavailability for "COc1cc2c(cc1-c1c(C)noc1C)ncc1nc(C)n([C@H](C)c3ccccc3)c12" ? 114

----------
# Procedure text: Apparent oral clearance in Sprague-Dawley rat at 10 mg/kg,po administration measured upto 24 hrs by LC-MS/MS analysis
# Format: ADME, organism-based
# Run parameters: in vivo
Recorded endpoint: CL/F (mL/min/kg)
Answer format: numeric, mL/min/kg implied, no suffix.

What does the record list as CL/F for "COc1cc2c(cc1-c1c(C)noc1C)ncc1nc(C)n([C@H](C)c3ccccc3)c12" ? 10.4

----------
Recorded measurements of IC50, one per entry
# Test system: MOLM-13
# Procedure text: cells
# Run parameters: Homo sapiens, MOLM-13, 48 h

Record excerpt, results attached:
{"Smiles representation": "COc1cc2c(cc1-c1cnc(N)nc1)ncc1nc(C)n([C@@H](C)c3ccccc3)c12", "IC50": "> 20 µM"}
{"Smiles representation": "COc1cc2c(cc1-c1c(C)noc1C)ncc1nc(C)n([C@H](C)c3ccccn3)c12", "IC50": "6.4 µM"}
{"Smiles representation": "COc1cc2c(cc1-c1ccc(C)cc1)ncc1nc(C)n([C@@H](C)c3ccccc3)c12", "IC50": "4.99 µM"}
{"Smiles representation": "COc1cc2c(cc1-c1c(C)noc1C)ncc1nc(C)n(C3CCOCC3)c12", "IC50": "5.15 µM"}
{"Smiles representation": "COc1ccncc1-c1cc2ncc3nc(C)n([C@@H](C)c4ccccc4)c3c2cc1OC", "IC50": "10.9 µM"}
{"Smiles representation": "COc1cc2c(cc1-c1ccc(N)cc1)ncc1nc(C)n([C@@H](C)c3ccccc3)c12", "IC50": "7.16 µM"}
{"Smiles representation": "COc1ccc(-n2c(C)nc3cnc4cc(-c5cnccc5OC)c(OC)cc4c32)cc1", "IC50": "> 20 µM"}
{"Smiles representation": "COc1ccc(-n2c(C)nc3cnc4cc(-c5ccc6[nH]ccc6c5)c(OC)cc4c32)cc1", "IC50": "> 20 µM"}

Can you look up IC50 on MOLM-13 for "COc1ccc(-n2c(C)nc3cnc4cc(-c5cc(C)cc(C)c5)c(OC)cc4c32)cc1" ? > 20 µM
